- Tested on: NCI-H1650
- test.description: Antiproliferative activity against human NCI-H1650 cells assessed as cell growth inhibition
- Type: functional, cell-based
observation.type: IC50 (nM)

CC1=C(O)C(=O)C=C2C1=CC=C1[C@@]2(C)CC[C@@]2(C)[C@@H]3C[C@](C)(C(=O)O)CC[C@]3(C)CC[C@]12C : 790

====

- experimental.system: UDP-glucuronosyltransferase 1A6 (Homo sapiens, UniProt P19224)
- Sequence (P19224 whole entry): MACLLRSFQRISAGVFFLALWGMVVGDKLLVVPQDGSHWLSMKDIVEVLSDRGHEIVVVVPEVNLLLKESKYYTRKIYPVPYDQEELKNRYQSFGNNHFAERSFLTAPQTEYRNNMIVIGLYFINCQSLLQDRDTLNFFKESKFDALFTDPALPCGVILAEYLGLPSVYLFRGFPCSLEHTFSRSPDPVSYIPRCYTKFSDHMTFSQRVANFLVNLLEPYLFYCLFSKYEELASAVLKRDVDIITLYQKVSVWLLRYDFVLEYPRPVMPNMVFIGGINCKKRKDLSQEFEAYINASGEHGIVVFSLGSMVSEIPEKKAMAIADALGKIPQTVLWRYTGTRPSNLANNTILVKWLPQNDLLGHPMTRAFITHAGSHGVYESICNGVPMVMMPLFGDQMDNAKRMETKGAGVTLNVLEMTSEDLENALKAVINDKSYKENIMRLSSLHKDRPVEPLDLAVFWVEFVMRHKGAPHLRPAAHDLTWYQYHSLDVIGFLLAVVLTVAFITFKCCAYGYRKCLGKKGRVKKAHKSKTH
pKi: −log10 of the molar value.
observation.type: pKi

CC1=C(O)C(=O)C=C2C1=CC=C1[C@@]2(C)CC[C@@]2(C)[C@@H]3C[C@](C)(C(=O)O)CC[C@]3(C)CC[C@]12C [CELASTROL] : 6.31

====

- System: NCI-H2228
- test.description: Antiproliferative activity against human NCI-H2228 cells assessed as cell growth inhibition
- Assay type: functional, cell-based
observation.type: IC50

CC1=C(O)C(=O)C=C2C1=CC=C1[C@@]2(C)CC[C@@]2(C)[C@@H]3C[C@](C)(C(=O)O)CC[C@]3(C)CC[C@]12C [CELASTROL] : 1950 nM
